# system: Factor XIa (Homo sapiens (Human), UniProt P03951)
# Sequence (P03951 388-625): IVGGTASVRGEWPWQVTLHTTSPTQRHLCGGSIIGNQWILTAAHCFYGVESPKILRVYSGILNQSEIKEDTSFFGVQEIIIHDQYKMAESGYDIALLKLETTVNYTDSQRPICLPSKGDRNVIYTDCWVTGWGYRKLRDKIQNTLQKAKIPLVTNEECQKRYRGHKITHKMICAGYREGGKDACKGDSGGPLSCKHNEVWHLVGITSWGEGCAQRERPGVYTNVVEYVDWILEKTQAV
# Sequence (P03951 19-387 partner): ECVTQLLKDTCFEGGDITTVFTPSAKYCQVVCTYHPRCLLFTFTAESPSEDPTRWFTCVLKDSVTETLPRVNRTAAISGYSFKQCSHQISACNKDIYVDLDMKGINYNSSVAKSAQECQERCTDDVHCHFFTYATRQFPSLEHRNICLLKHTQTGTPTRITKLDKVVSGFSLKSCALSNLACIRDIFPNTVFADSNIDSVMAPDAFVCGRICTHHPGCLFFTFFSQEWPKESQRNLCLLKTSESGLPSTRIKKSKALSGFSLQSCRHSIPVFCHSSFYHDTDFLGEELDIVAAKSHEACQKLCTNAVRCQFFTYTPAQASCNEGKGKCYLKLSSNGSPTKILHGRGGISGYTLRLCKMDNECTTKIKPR
# assay.comment: Factor XIa inhibition assay (FLINT) utilizing a fluorophore-quencher pair peptide substrate
# Type: biochemical
# applied.conditions: μM; 30 min preincubation, kinetic reads; read-out: FXIa Kin Inh IC50
property.measured: IC50 (µM)

[1] Nc1ccc(-c2cnc([C@H]3CC[C@@H]4CC(c5c(-n6cnnn6)ccc(Cl)c5F)=CC(=O)N43)[nH]2)c(F)n1
[2] COC(=O)Nc1ccc(-c2cnc([C@@H]3CC[C@H]4CC(c5c(F)ccc(Cl)c5OC(F)F)=CC(=O)N43)[nH]2)cc1 (relative stereo)
Compare reported IC50 values for 1 and 2 . Which is lower? Answer by stating the label of the chosen item.
2

---

# system: human plasma kallikrein (Homo sapiens (Human), UniProt P03952)
# Sequence (P03952 391-638): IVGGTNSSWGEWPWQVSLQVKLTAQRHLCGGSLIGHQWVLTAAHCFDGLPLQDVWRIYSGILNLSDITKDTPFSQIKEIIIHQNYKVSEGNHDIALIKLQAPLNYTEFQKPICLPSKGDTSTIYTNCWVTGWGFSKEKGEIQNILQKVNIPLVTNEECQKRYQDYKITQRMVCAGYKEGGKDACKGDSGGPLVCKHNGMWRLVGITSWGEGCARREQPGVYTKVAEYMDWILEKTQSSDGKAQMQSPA
# Sequence (P03952 20-390 partner): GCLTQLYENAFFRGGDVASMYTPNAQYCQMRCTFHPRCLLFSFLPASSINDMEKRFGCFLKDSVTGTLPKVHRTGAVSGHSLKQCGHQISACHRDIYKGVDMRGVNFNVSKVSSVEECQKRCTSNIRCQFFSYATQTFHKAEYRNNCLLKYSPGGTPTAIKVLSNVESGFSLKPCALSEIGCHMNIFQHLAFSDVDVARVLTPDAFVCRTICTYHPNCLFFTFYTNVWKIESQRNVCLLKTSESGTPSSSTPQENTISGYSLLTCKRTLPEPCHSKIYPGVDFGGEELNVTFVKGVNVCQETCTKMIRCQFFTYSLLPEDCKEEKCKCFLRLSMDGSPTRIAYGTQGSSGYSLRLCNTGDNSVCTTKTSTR
# assay.comment: Kallikrein inhibition assay (FLINT) utilizing a quenched AMC peptide substrate
# Type: biochemical
# applied.conditions: 30 min preincubation, kinetic reads over 30 min, Z-Gly-Pro-Arg-AMC substrate 50 μM; read-out: Kallikrein Kin Inh IC50
pIC50: −log10 of the molar value.
property.measured: pIC50

>  <compound>
O=C1C=C(c2c(OC(F)F)ccc(Cl)c2F)C[C@H]2CC[C@@H](c3ncc(-c4ccnc(CO)c4F)[nH]3)N12

>  <pIC50>
6.32

$$$$

[P] O=C1C=C(c2c(-n3cnnn3)ccc(Cl)c2F)CC2CC[C@H](c3nc(F)c(-c4ccnc(N[C@H]5CCOC5)c4F)[nH]3)N12 (relative stereo)
[Q] O=C1C=C(c2c(-n3cnnn3)ccc(Cl)c2F)C[C@H]2CC[C@@H](c3ncc(-c4cc(F)ncc4Cl)[nH]3)N12
[R] NC(=O)c1ccc(-c2cnc([C@@H]3CC[C@@H]4CC(c5c(-n6cnnn6)ccc(Cl)c5F)=CC(=O)N43)[nH]2)c(Cl)n1
[S] O=C(Nc1ccccc1-c1cnc([C@@H]2CC[C@@H]3CC(c4c(-n5cnnn5)ccc(Cl)c4F)=CC(=O)N32)[nH]1)C1CC1
[T] O=C(O)c1nccc(-c2cnc([C@@H]3CC[C@@H]4CC(c5c(-n6cnnn6)ccc(Cl)c5F)=CC(=O)N43)[nH]2)c1F
Highest pIC50 first, then in falling order down to the smallest. Give the labels in the order requested.
S, P, T, Q, R
(S: 9.15, P: 8.30, T: 7.85, Q: 7.25, R: 6.47)

---

# system: Factor XIa (Homo sapiens (Human), UniProt P03951)
# assay.comment: Factor XIa inhibition assay (FLINT) utilizing a fluorophore-quencher pair peptide substrate
# Assay type: biochemical
# applied.conditions: 30 min preincubation, kinetic reads over 30 min, 5Fam-[…]-K5Tamra substrate 15 μM; read-out: FXIa Kin Inh IC50
pIC50: −log10 of the molar value.
property.measured: pIC50

>  <molecule>
O=C1C=C(c2c(-n3cnnn3)ccc(Cl)c2F)C[C@H]2CC[C@@H](c3ncc(-c4ccnc(N[C@H]5CCOC5)c4F)[nH]3)N12 (single isomer, unassigned)

>  <pIC50>
9.22

$$$$
>  <molecule>
[2H]c1nc([C@@H]2CC[C@]3([2H])CC(c4c(-n5cnnn5)ccc(Cl)c4F)=CC(=O)N23)[nH]c1-c1c(F)nc(N)c([2H])c1[2H] (single isomer, unassigned)

>  <pIC50>
9.40

$$$$

[a] O=C1CCc2cc(-c3cnc([C@@H]4CC[C@H]5CC(c6c(-n7cnnn7)ccc(Cl)c6F)=CC(=O)N54)[nH]3)ccc2N1 (relative stereo)
[b] O=C1C=C(c2c(-n3cnnn3)ccc(Cl)c2F)C[C@@H]2CC[C@@H](c3ncc(-c4cc[n+]([O-])cc4)[nH]3)N12 (relative stereo)
[c] O=C1C=C(c2cc(Cl)ccc2-n2cc(C(F)(F)F)nn2)C[C@H]2CC[C@@H](c3ncc(-c4ccc5[nH]c(=O)cnc5c4F)[nH]3)N12 (relative stereo)
List by increasing pIC50. Give the labels in the order requested.
b, c, a

---

# system: human plasma kallikrein (Homo sapiens (Human), UniProt P03952)
# assay.comment: Kallikrein inhibition assay (FLINT) utilizing a quenched AMC peptide substrate
# Assay type: biochemical
# applied.conditions: 30 min preincubation, kinetic reads over 30 min, Z-Gly-Pro-Arg-AMC substrate 50 μM; read-out: Kallikrein Kin Inh IC50
property.measured: IC50 (nM)

>  <compound>
O=C1Cc2cc(-c3cnc([C@@H]4CC[C@@H]5CC(c6c(-n7cnnn7)ccc(Cl)c6F)=CC(=O)N54)[nH]3)ccc2N1 (single isomer, unassigned) [Example 284]

>  <IC50 [nM]>
3.5

$$$$

[A] O=C(Nc1ccncc1-c1c[nH]c([C@@H]2CC[C@H]3CC(c4c(-n5cnnn5)ccc(Cl)c4F)=CC(=O)N32)n1)C1CC1 [Example 267]
[B] [2H]c1nc([C@@H]2CC[C@@H]3CC(c4c(-n5cnnn5)ccc(Cl)c4F)=CC(=O)N32)[nH]c1-c1ccnc(C([2H])([2H])O)c1F [Example 113]
Thinking about recorded IC50 values, which is higher, A or B ? Answer by stating the label of the chosen item.
B
(B: 27.3 nM, A: 9 nM)

---

# system: Factor XIa (Homo sapiens (Human), UniProt P03951)
# assay.comment: Factor XIa inhibition assay (FLINT) utilizing a fluorophore-quencher pair peptide substrate
# Assay type: biochemical
# applied.conditions: 30 min preincubation, kinetic reads over 30 min, 5Fam-[…]-K5Tamra substrate 15 μM; read-out: FXIa Kin Inh IC50
# Text: Biological Example 1: Factor XIa Inhibition Assay Utilizing a Fluorophore-Quencher Pair Peptide Substrate A fluorescence intensity (FLINT) based assay was used to monitor inhibition of Factor XIa. The peptide substrate, 5Fam-[…]-K5Tamra (purchased from New England Peptide) was chosen based on the FXI sequence. […] The peptide substrate was designed with a fluorophore-quencher pair, where the fluorescence is quenched until FXIa cleaves the 8-mer peptide after the Arg residue. […]
property.measured: IC50 (nM)

Consider the reported IC50 for these molecules:
>  <molecule>
N#CC1CN(c2nccc(-c3cnc([C@H]4CC[C@@H]5CC(c6c(-n7cnnn7)ccc(Cl)c6F)=CC(=O)N54)[nH]3)c2F)C1 (single isomer, unassigned)

>  <property.measured>
IC50

>  <recorded.value>
10.3

$$$$
>  <molecule>
O=C1C=C(c2c(-n3cnnn3)ccc(Cl)c2F)C[C@H]2CC[C@H](c3ncc(-c4ccnc(COCP(=O)(O)O)c4F)[nH]3)N12 (relative stereo)

>  <property.measured>
IC50

>  <recorded.value>
1.3

$$$$
>  <molecule>
COC(=O)Nc1ccccc1-c1cnc([C@@H]2CC[C@H]3CC(c4c(-n5cnnn5)ccc(Cl)c4F)=CC(=O)N32)[nH]1 (relative stereo)

>  <property.measured>
IC50

>  <recorded.value>
10.4

$$$$

[1] O=C1C=C(c2c(-n3cnnn3)ccc(Cl)c2F)C[C@@H]2CC[C@@H](c3ncc(-c4ccnc(N[C@H]5CCOC5)c4F)[nH]3)N12 (single isomer, unassigned)
[2] [2H]c1c(NC)nc(F)c(-c2cnc([C@H]3CC[C@@H]4CC(c5c(-n6cnnn6)ccc(Cl)c5F)=CC(=O)N43)[nH]2)c1[2H] (relative stereo)
[3] O=C1C=C(c2cc(Cl)ccc2-n2cc(C(F)(F)F)nn2)C[C@H]2CC[C@@H](c3ncc(-c4ccnc(CO)c4F)[nH]3)N12 (relative stereo)
[4] CC(C)(O)COc1nccc(-c2c[nH]c([C@@H]3CC[C@@H]4CC(c5c(-n6cc(C(F)(F)F)nn6)ccc(Cl)c5F)=CC(=O)N43)n2)c1F
[5] O=C1CCc2cc(-c3cnc([C@@H]4CC[C@@H]5CC(c6c(-n7cnnn7)ccc(Cl)c6F)=CC(=O)N54)[nH]3)ccc2N1 (relative stereo)
List by increasing IC50. Give the labels in the order requested.
5, 2, 1, 4, 3
(5: 0.3 nM, 2: 0.7 nM, 1: 2.6 nM, 4: 3.8 nM, 3: 11.5 nM)

---

# system: human plasma kallikrein (Homo sapiens (Human))
# assay.comment: Kallikrein inhibition assay (FLINT) utilizing a quenched AMC peptide substrate
# Assay type: biochemical
# applied.conditions: 30 min preincubation, kinetic reads over 30 min, Z-Gly-Pro-Arg-AMC substrate 50 μM; read-out: Kallikrein Kin Inh IC50
# Description: Biological Example 2: Kallikrein Inhibition Assay Utilizing a Quenched AMC Peptide Substrate A fluorescence intensity (FLINT) based assay was used to monitor inhibition of human plasma kallikrein. […] Test compound(s) were run in an 11-point, 3-fold serial dilution with a final top compound concentration of 1 μM. […] The assay was run with kinetic (KIN) reads at 5 min intervals over 30 minutes. […]
pIC50: −log10 of the molar value.
property.measured: pIC50

Consider the reported pIC50 for these compounds:
>  <compound>
O=C1C=C(c2c(-n3cnnn3)ccc(Cl)c2F)C[C@H]2CC[C@H](c3nc(F)c(-c4ccnc(C5(O)CC5)c4F)[nH]3)N12 (single isomer, unassigned)

>  <recorded.value>
7.45

$$$$
>  <compound>
COC(=O)Nc1ccc(-c2cnc([C@@H]3CCC4CC(c5c(-n6cnnn6)ccc(Cl)c5F)=CC(=O)N43)[nH]2)nc1 (stereo partly drawn)

>  <recorded.value>
7.91

$$$$
>  <compound>
O=C1C=C(c2cc(Cl)ccc2-n2cc(C(F)(F)F)nn2)C[C@H]2CC[C@@H](c3ncc(-c4ccc5[nH]c(=O)ccc5c4)[nH]3)N12

>  <recorded.value>
8.72

$$$$

[1] O=C1C=C(c2c(-n3cnnn3)ccc(Cl)c2F)C[C@H]2CC[C@@H](c3ncc(-c4cnc5[nH]ccc5c4)[nH]3)N12
[2] CC(C)(O)CNc1nccc(-c2[nH]c([C@@H]3CC[C@@H]4CC(c5cc(Cl)ccc5-n5cnnn5)=CC(=O)N43)nc2F)c1F
Compare reported pIC50 values for 1 and 2 . Which is lower? Answer by stating the label of the chosen item.
1

[A] Cn1cc(-c2c[nH]c([C@@H]3CCC4CC(c5c(-n6cnnn6)ccc(Cl)c5F)=CC(=O)N43)n2)c(NC(=O)C2CC2)n1 (stereo partly drawn)
[B] COc1ccc(-c2c[nH]c([C@@H]3CC[C@H]4CC(c5c(-n6cnnn6)ccc(Cl)c5F)=CC(=O)N43)n2)c(NC(=O)C2CC2)c1
[C] O=C1C=C(c2cc(Cl)ccc2-n2cnnn2)C[C@H]2CC[C@@H](c3nc(F)c(-c4ccnc(CO)c4F)[nH]3)N12
[D] O=C1C=C(c2c(-n3cnnn3)ccc(Cl)c2F)C[C@H]2CC[C@@H](c3ncc(-c4ccnc(OC[C@@H]5COCCO5)c4F)[nH]3)N12 (single isomer, unassigned)
List by increasing pIC50. Give the labels in the order requested.
A, C, D, B
